# Test system: 616215-338-R-J1-PDC complex spheroids, viability % test/control
# EXPERIMENT_DESCRIPTION: Anticancer human tumor 616215-338-R-J1-PDC patient-derived colon adenocarcinoma cell line growth inhibition [CLK]
# CONDITION_NOTES: second compound 10 µM; first compound 0.03 µM; hits give low values
Recorded viability, T/C for the following compounds
PARAMETER_MEASURED: viability, T/C (%)

| COMPOUND | PARAMETER_MEASURED | ASSAY_VALUE |
| --- | --- | --- |
| CC(C)CC(NC(=O)C(Cc1ccccc1)NC(=O)c1cnccn1)B(O)O (stereo not drawn) + CN1CCN(c2cc(C(=O)Nc3cc4cc(-c5cnn(C)c5)ccc4cn3)ccn2)CC1 | viability, T/C | 0.11 |
| CC(C)CC(NC(=O)C(Cc1ccccc1)NC(=O)c1cnccn1)B(O)O (stereo not drawn) + CNC(=O)c1ccc(Nc2nc(OC3CCCC3)c3c(-c4ccc5nc(C)oc5c4)c[nH]c3n2)c(OC)c1 | viability, T/C | 0.18 |
| NC(=O)C(=Cn1cnc(-c2cc(C(F)(F)F)cc(C(F)(F)F)c2)n1)c1cncnc1 + CNC(=O)c1ccc(Nc2nc(OC3CCCC3)c3c(-c4ccc5nc(C)oc5c4)c[nH]c3n2)c(OC)c1 | viability, T/C | 28.5 |

###

# Test system: 616215-338-R-J1-PDC complex spheroids, viability % test/control
# EXPERIMENT_DESCRIPTION: Anticancer human tumor 616215-338-R-J1-PDC cell line growth inhibition [CLK];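 note: spheroids exposed to agents for 7 days; 100% = DMSO vehicle wells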
# CONDITION_NOTES: second compound 0.316 µM; first compound 0.1 µM; hits give low values

| COMPOUND | TESTED_ON | viability, T/C |
| --- | --- | --- |
| COc1ccc([C@@H](O)c2cc(-c3ncnc4cc(N5CCOCC5)ccc34)c(F)cc2Cl)nn1 + CNC(=O)c1ccc(Nc2nc(OC3CCCC3)c3c(-c4ccc5nc(C)oc5c4)c[nH]c3n2)c(OC)c1 | 616215-338-R-J1-PDC complex spheroids, viability % test/control | 43.5% |
| CC1(C)CCC(CN2CCN(c3ccc(C(=O)NS(=O)(=O)c4ccc(NCC5CCOCC5)c([N+](=O)[O-])c4)c(Oc4cnc5[nH]ccc5c4)c3)CC2)=C(c2ccc(Cl)cc2)C1 + CN1CCN(c2cc(C(=O)Nc3cc4cc(-c5cnn(C)c5)ccc4cn3)ccn2)CC1 | 616215-338-R-J1-PDC complex spheroids, viability % test/control | 31.4% |
| C=CC(=O)N1CCN(c2nc(=O)n(-c3c(C)ccnc3C(C)C)c3nc(-c4c(O)cccc4F)c(F)cc23)C(C)C1 (stereo unspecified) + CN1CCN(c2cc(C(=O)Nc3cc4cc(-c5cnn(C)c5)ccc4cn3)ccn2)CC1 | 616215-338-R-J1-PDC complex spheroids, viability % test/control | 43% |
| COc1ccc([C@@H](O)c2cc(-c3ncnc4cc(N5CCOCC5)ccc34)c(F)cc2Cl)nn1 + CN1CCN(c2cc(C(=O)Nc3cc4cc(-c5cnn(C)c5)ccc4cn3)ccn2)CC1 | 616215-338-R-J1-PDC complex spheroids, viability % test/control | 30.6% |
| Nc1ccccc1NC(=O)c1ccc(CNC(=O)OCc2cccnc2)cc1 + CNC(=O)c1ccc(Nc2nc(OC3CCCC3)c3c(-c4ccc5nc(C)oc5c4)c[nH]c3n2)c(OC)c1 | 616215-338-R-J1-PDC complex spheroids, viability % test/control | 39.4% |
| CC(CO)NC(=O)c1cc(-c2ccc(Cl)cc2)nn(-c2cnn(C)c2)c1=O (stereo unspecified) + CNC(=O)c1ccc(Nc2nc(OC3CCCC3)c3c(-c4ccc5nc(C)oc5c4)c[nH]c3n2)c(OC)c1 | 616215-338-R-J1-PDC complex spheroids, viability % test/control | 45.8% |
| Nc1ccccc1NC(=O)c1ccc(CNC(=O)OCc2cccnc2)cc1 + CN1CCN(c2cc(C(=O)Nc3cc4cc(-c5cnn(C)c5)ccc4cn3)ccn2)CC1 | 616215-338-R-J1-PDC complex spheroids, viability % test/control | 31.3% |
| CC(Nc1ccc2c(c1)OCCn1cc(N3C(=O)OCC3C(F)F)nc1-2)C(N)=O (stereo unspecified) + CNC(=O)c1ccc(Nc2nc(OC3CCCC3)c3c(-c4ccc5nc(C)oc5c4)c[nH]c3n2)c(OC)c1 | 616215-338-R-J1-PDC complex spheroids, viability % test/control | 34.2% |
| COc1cccc2c1C(=O)c1c(O)c3c(c(O)c1C2=O)CC(O)(C(=O)CO)CC3OC1CC(N)C(O)C(C)O1 (stereo unspecified) + CN1CCN(c2cc(C(=O)Nc3cc4cc(-c5cnn(C)c5)ccc4cn3)ccn2)CC1 | 616215-338-R-J1-PDC complex spheroids, viability % test/control | 32.9% |
| COc1c(OCCCN2CCOCC2)ccc2c3n(c(=NC(=O)c4cnc(N)nc4)nc12)CCN3 + CN1CCN(c2cc(C(=O)Nc3cc4cc(-c5cnn(C)c5)ccc4cn3)ccn2)CC1 | 616215-338-R-J1-PDC complex spheroids, viability % test/control | 6.03% |
| O=c1[nH]cc(F)c(=O)[nH]1 + CN1CCN(c2cc(C(=O)Nc3cc4cc(-c5cnn(C)c5)ccc4cn3)ccn2)CC1 | 616215-338-R-J1-PDC complex spheroids, viability % test/control | 34.7% |

###

# System: 616215-338-R-J1-PDC complex spheroids, viability % test/control
# EXPERIMENT_DESCRIPTION: Anticancer human tumor 616215-338-R-J1-PDC cell line growth inhibition [CLK];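 note: spheroids exposed to agents for 7 days; 100% = DMSO vehicle wells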
# CONDITION_NOTES: second compound 0.316 µM; first compound 3.16 µM; hits give low values
PARAMETER_MEASURED: viability, T/C (%)

| COMPOUND | UNIT_STRING | ASSAY_VALUE |
| --- | --- | --- |
| CC(CO)NC(=O)c1cc(-c2ccc(Cl)cc2)nn(-c2cnn(C)c2)c1=O (stereo not drawn) + CN1CCN(c2cc(C(=O)Nc3cc4cc(-c5cnn(C)c5)ccc4cn3)ccn2)CC1 | % | 33.1 |
| CC1COCCN1c1cc(C2(S(C)(=N)=O)CC2)nc(-c2ccnc3[nH]ccc23)n1 (stereo not drawn) + CNC(=O)c1ccc(Nc2nc(OC3CCCC3)c3c(-c4ccc5nc(C)oc5c4)c[nH]c3n2)c(OC)c1 | % | 56.9 |
| Nc1ccn(C2OC(CO)C(O)C2(F)F)c(=O)n1 (stereo not drawn) + CN1CCN(c2cc(C(=O)Nc3cc4cc(-c5cnn(C)c5)ccc4cn3)ccn2)CC1 | % | 12.1 |

###

# Tested on: 616215-338-R-J1-PDC complex spheroids, viability % test/control
# EXPERIMENT_DESCRIPTION: Anticancer human tumor 616215-338-R-J1-PDC cell line growth inhibition [CLK]; active = viability on the fitted dose curve at most 10% of control; inactive = the rest;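 note: spheroids exposed to agents for 7 days; 100% = DMSO vehicle wells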
# CONDITION_NOTES: second compound 1 µM; first compound 3.16 µM
Classes used: active, inactive

| COMPOUND | TESTED_ON | CATEGORY_LABEL |
| --- | --- | --- |
| Nc1ccccc1NC(=O)c1ccc(CNC(=O)OCc2cccnc2)cc1 + CNC(=O)c1ccc(Nc2nc(OC3CCCC3)c3c(-c4ccc5nc(C)oc5c4)c[nH]c3n2)c(OC)c1 | 616215-338-R-J1-PDC complex spheroids, viability % test/control | inactive |
| CCCS(=O)(=O)Nc1ccc(F)c(C(=O)c2c[nH]c3ncc(-c4ccc(Cl)cc4)cc23)c1F + CNC(=O)c1ccc(Nc2nc(OC3CCCC3)c3c(-c4ccc5nc(C)oc5c4)c[nH]c3n2)c(OC)c1 | 616215-338-R-J1-PDC complex spheroids, viability % test/control | inactive |
| O=c1[nH]cc(F)c(=O)[nH]1 + CNC(=O)c1ccc(Nc2nc(OC3CCCC3)c3c(-c4ccc5nc(C)oc5c4)c[nH]c3n2)c(OC)c1 | 616215-338-R-J1-PDC complex spheroids, viability % test/control | inactive |
| CC(CO)NC(=O)c1cc(-c2ccc(Cl)cc2)nn(-c2cnn(C)c2)c1=O (stereo not given) + CNC(=O)c1ccc(Nc2nc(OC3CCCC3)c3c(-c4ccc5nc(C)oc5c4)c[nH]c3n2)c(OC)c1 | 616215-338-R-J1-PDC complex spheroids, viability % test/control | inactive |
| C=CC(=O)N1CCN(c2nc(=O)n(-c3c(C)ccnc3C(C)C)c3nc(-c4c(O)cccc4F)c(F)cc23)C(C)C1 (stereo not given) + CNC(=O)c1ccc(Nc2nc(OC3CCCC3)c3c(-c4ccc5nc(C)oc5c4)c[nH]c3n2)c(OC)c1 | 616215-338-R-J1-PDC complex spheroids, viability % test/control | inactive |
| CC(=O)O[C@H]1C(=O)[C@@]2(C)[C@H]([C@H](OC(=O)c3ccccc3)[C@]3(O)C[C@H](OC(=O)[C@H](O)[C@@H](NC(=O)c4ccccc4)c4ccccc4)C(C)=C1C3(C)C)[C@]1(OC(C)=O)CO[C@@H]1C[C@@H]2O + CNC(=O)c1ccc(Nc2nc(OC3CCCC3)c3c(-c4ccc5nc(C)oc5c4)c[nH]c3n2)c(OC)c1 | 616215-338-R-J1-PDC complex spheroids, viability % test/control | inactive |
| CC1COCCN1c1cc(C2(S(C)(=N)=O)CC2)nc(-c2ccnc3[nH]ccc23)n1 (stereo not given) + CNC(=O)c1ccc(Nc2nc(OC3CCCC3)c3c(-c4ccc5nc(C)oc5c4)c[nH]c3n2)c(OC)c1 | 616215-338-R-J1-PDC complex spheroids, viability % test/control | inactive |
| CC(CO)NC(=O)c1cc(-c2ccc(Cl)cc2)nn(-c2cnn(C)c2)c1=O (stereo not given) + CN1CCN(c2cc(C(=O)Nc3cc4cc(-c5cnn(C)c5)ccc4cn3)ccn2)CC1 | 616215-338-R-J1-PDC complex spheroids, viability % test/control | active |
| CC1COCCN1c1cc(C2(S(C)(=N)=O)CC2)nc(-c2ccnc3[nH]ccc23)n1 (stereo not given) + CN1CCN(c2cc(C(=O)Nc3cc4cc(-c5cnn(C)c5)ccc4cn3)ccn2)CC1 | 616215-338-R-J1-PDC complex spheroids, viability % test/control | active |
| COc1cccc2c1C(=O)c1c(O)c3c(c(O)c1C2=O)CC(O)(C(=O)CO)CC3OC1CC(N)C(O)C(C)O1 (stereo not given) + CN1CCN(c2cc(C(=O)Nc3cc4cc(-c5cnn(C)c5)ccc4cn3)ccn2)CC1 | 616215-338-R-J1-PDC complex spheroids, viability % test/control | active |
| CC1(C)CCC(CN2CCN(c3ccc(C(=O)NS(=O)(=O)c4ccc(NCC5CCOCC5)c([N+](=O)[O-])c4)c(Oc4cnc5[nH]ccc5c4)c3)CC2)=C(c2ccc(Cl)cc2)C1 + CNC(=O)c1ccc(Nc2nc(OC3CCCC3)c3c(-c4ccc5nc(C)oc5c4)c[nH]c3n2)c(OC)c1 | 616215-338-R-J1-PDC complex spheroids, viability % test/control | inactive |
| COC1C=CCC(C)C(C)S(=O)(=O)NC(=O)c2ccc3c(c2)N(CC2CCC21)CC1(CCCc2cc(Cl)ccc21)CO3 (stereo not given) + CN1CCN(c2cc(C(=O)Nc3cc4cc(-c5cnn(C)c5)ccc4cn3)ccn2)CC1 | 616215-338-R-J1-PDC complex spheroids, viability % test/control | active |
| C#Cc1c(F)ccc2cc(O)cc(-c3ncc4c(N5CC6CCC(C5)N6)nc(OCC56CCCN5CC(F)C6)nc4c3F)c12 (stereo not given) + CN1CCN(c2cc(C(=O)Nc3cc4cc(-c5cnn(C)c5)ccc4cn3)ccn2)CC1 | 616215-338-R-J1-PDC complex spheroids, viability % test/control | active |
| COc1ccc([C@@H](O)c2cc(-c3ncnc4cc(N5CCOCC5)ccc34)c(F)cc2Cl)nn1 + CN1CCN(c2cc(C(=O)Nc3cc4cc(-c5cnn(C)c5)ccc4cn3)ccn2)CC1 | 616215-338-R-J1-PDC complex spheroids, viability % test/control | active |
| CC(Nc1ccc2c(c1)OCCn1cc(N3C(=O)OCC3C(F)F)nc1-2)C(N)=O (stereo not given) + CNC(=O)c1ccc(Nc2nc(OC3CCCC3)c3c(-c4ccc5nc(C)oc5c4)c[nH]c3n2)c(OC)c1 | 616215-338-R-J1-PDC complex spheroids, viability % test/control | inactive |
| C#Cc1c(F)ccc2cc(O)cc(-c3ncc4c(N5CC6CCC(C5)N6)nc(OCC56CCCN5CC(F)C6)nc4c3F)c12 (stereo not given) + CNC(=O)c1ccc(Nc2nc(OC3CCCC3)c3c(-c4ccc5nc(C)oc5c4)c[nH]c3n2)c(OC)c1 | 616215-338-R-J1-PDC complex spheroids, viability % test/control | inactive |
| O=C(c1cc(Cc2n[nH]c(=O)c3ccccc23)ccc1F)N1CCN(C(=O)C2CC2)CC1 + CN1CCN(c2cc(C(=O)Nc3cc4cc(-c5cnn(C)c5)ccc4cn3)ccn2)CC1 | 616215-338-R-J1-PDC complex spheroids, viability % test/control | active |
| COC1C=CCC(C)C(C)S(=O)(=O)NC(=O)c2ccc3c(c2)N(CC2CCC21)CC1(CCCc2cc(Cl)ccc21)CO3 (stereo not given) + CNC(=O)c1ccc(Nc2nc(OC3CCCC3)c3c(-c4ccc5nc(C)oc5c4)c[nH]c3n2)c(OC)c1 | 616215-338-R-J1-PDC complex spheroids, viability % test/control | inactive |
| Nc1ccn(C2OC(CO)C(O)C2(F)F)c(=O)n1 (stereo not given) + CNC(=O)c1ccc(Nc2nc(OC3CCCC3)c3c(-c4ccc5nc(C)oc5c4)c[nH]c3n2)c(OC)c1 | 616215-338-R-J1-PDC complex spheroids, viability % test/control | inactive |
| C=C(F)C(=O)N1CCN(c2nc(OCC3CCCN3C)nc3c2CCN(c2cccc4cccc(Cl)c24)C3)CC1CC#N (stereo not given) + CN1CCN(c2cc(C(=O)Nc3cc4cc(-c5cnn(C)c5)ccc4cn3)ccn2)CC1 | 616215-338-R-J1-PDC complex spheroids, viability % test/control | active |

Where do these numbers come from? They come from PubChem BioAssay AID2060610.
